Test system: crabgrass
experimentalDetails: Test B pre/postemergence crabgrass
Assay type: in vivo, Digitaria sanguinalis
assayContext: Postemergence, Rate 250 g/ha; scale 0 to 10, 0 no effect, 10 complete control
The following compounds are listed with their measured Crabgrass plant response rating values.

| compound | Crabgrass plant response rating |
| --- | --- |
| CC(C)N(C(=O)n1oc(=O)n(-c2cc(Cl)ccc2Cl)c1=O)c1ccc(F)cc1 [Compound 16] | 0 |
| CC(C)N(C(=O)n1oc(=O)n(-c2ccc(Cl)cc2C(F)(F)F)c1=O)c1ccc(F)cc1 [Compound 20] | 3 |
| Cc1ccccc1-n1c(=O)on(C(=O)N(c2ccccc2)C(C)C)c1=O [Compound 36] | 3 |
| CC(C)N(C(=O)n1oc(=O)n(Cc2ccccc2)c1=O)c1ccccc1 [Compound 94] | 8 |

----------
Test system: surinam grass
experimentalDetails: Test B pre/postemergence surinam grass
Format: in vivo, Brachiaria decumbens
assayContext: Postemergence, Rate 62 g/ha; scale of 0 to 10, 0 is no effect, 10 is complete control

| molecule | B. signalgrass plant response rating |
| --- | --- |
| CCCCn1c(=O)on(C(=O)N(c2ccc(Cl)cc2)C(C)C)c1=O [Compound 527] | 0 |
| Cc1noc(C)c1Cn1c(=O)on(C(=O)N(c2ccc(F)cc2F)C(C)C)c1=O [Compound 510] | 2 |
| CCCCn1c(=O)on(C(=O)N(c2ccccc2)C(C)C)c1=O [Compound 556] | 0 |
| CCCCCCn1c(=O)on(C(=O)N(c2ccccc2)C(C)C)c1=O [Compound 558] | 0 |

----------
Test system: smallflower flatsedge
experimentalDetails: Test B flood test smallflower flatsedge
Format: in vivo, Cyperus difformis
assayContext: Rate 125 g/ha; under heading Pre-emergence; flood test species; visual evaluation after twelve to sixteen days
The following compounds are listed with their measured S. Flatsedge plant response rating (0 to 10 scale, 0 is no effect, 10 is complete control) values.
parameterMeasured: S. Flatsedge plant response rating (0 to 10 scale, 0 is no effect, 10 is complete control)

| compound | endpointValue |
| --- | --- |
| CC(C)N(C(=O)n1oc(=O)n(Cc2nnc(Cl)s2)c1=O)c1ccc(F)cc1 | 0 |
| Cc1nc(Cl)sc1C(C)n1c(=O)on(C(=O)N(c2ccccc2)C(C)C)c1=O (stereo not drawn) | 0 |
| CC(C)N(C(=O)n1oc(=O)n(CC2CCC2)c1=O)c1ccc(F)cc1 | 0 |

----------
Test system: rape
experimentalDetails: Test B pre/postemergence rape
Assay type: in vivo, Brassica napus
assayContext: Preemergence, Rate 250 g/ha; scale 0 to 10 (0 no effect, 10 complete control)

| molecule | testTarget | Plant response rating, Rape |
| --- | --- | --- |
| CC(C)N(C(=O)n1oc(=O)n(Cc2nnc(Cl)s2)c1=O)c1ccc(F)cc1 [Compound 646] | rape | 0 |
| CC(C)N(C(=O)n1oc(=O)n(CC(=O)C2CCC2)c1=O)c1ccc(F)cc1 [Compound 640] | rape | 3 |
| CC(C)N(C(=O)n1oc(=O)n(Cc2nnc(Cl)s2)c1=O)c1ccc(Cl)cc1 [Compound 653] | rape | 0 |
| CCOC(Cn1c(=O)on(C(=O)N(c2ccc(Cl)cc2)C(C)C)c1=O)OCC [Compound 633] | rape | 1 |

----------
Test system: wild oat
experimentalDetails: Test B pre/postemergence wild oat
Format: in vivo, Avena fatua
assayContext: Preemergence, Rate 250 g/ha; scale 0 (no effect) to 10 (complete control)
Procedure: […] At the same time, these crop and weed species were also treated with postemergence applications of test chemicals formulated in the same manner. […] Treated plants and controls were maintained in a greenhouse for twelve to sixteen days, after which all species were compared to controls and visually evaluated. […]

| smilesCode | Wild oats plant response rating |
| --- | --- |
| CC(C)N(C(=O)n1oc(=O)n(CC(F)F)c1=O)c1ccc(Cl)cc1 | 8 |
| CC(C)N(C(=O)n1oc(=O)n(CC2=NOCCO2)c1=O)c1ccc(F)cc1F | 8 |
| CC(C)N(C(=O)n1oc(=O)n(CCCCCl)c1=O)c1ccc(F)cc1 | 3 |
| CC(C)N(C(=O)n1oc(=O)n(CCCCl)c1=O)c1ccccc1 | 7 |
